B1: tRNA (parent)
chain: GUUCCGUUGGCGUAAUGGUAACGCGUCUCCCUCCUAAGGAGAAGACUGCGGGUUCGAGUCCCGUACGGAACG

Variants of: B1
Protocol Details: yeast fitness relative to wild type (ratio to wild type); higher = fitter; tRNA-Arg(CCU), competitive growth, 37 C, YPD
Fewer inactive variants are shown than the library holds.
Attribute Measured: yeast fitness

Give yeast fitness for GUUGCGUCGGCGUAAUGGUAACGCGUCUCCGUGCUAAGGAGAAGACUGCGGGUUCGACUUCCGUACGGACCG [C4G U8C C31G C33G G58C C60U A70C]
≤ 0.5

Give yeast fitness for GUUCCGUUGGCGUAAUGGUAACGCGUCUCCCUGCUAAGGGGAAGACUGCGCGUUCGAGUCUCGUACGGAACG [C33G A40G G51C C61U]
≤ 0.5

Give yeast fitness for GUUCCGUUGGCGUAAUGGUAAUGCGUCUCCCUCCUCAGGAGAAGACUGCGGGUUCGAGUCCCGUACGGCACG [C22U A36C A69C]
≤ 0.5

Give yeast fitness for GUUCCGUUGGCGUAAUGGUACCGCGUCUCCCUCUUUACGAGAAGACUGUGGGUUCGAGUCCCGUACGGAACG [A21C C34U A36U G38C C49U]
≤ 0.5

Give yeast fitness for GUUCCGUUGGCGUUAGGGAAACGCGUCUCCCUCCUAAGGAGGAGACUGCGGAUUCGAGUCCCGUACGGAACG [A14U U16G U19A A42G G52A]
≤ 0.5

Give yeast fitness for GUUCCGUUGGCGUAAUGGUAAGGCGUCUCCCUCAUAAGGAGAAGACUGCGGGUUCGAAUCCCGUAAGGAACG [C22G C34A G58A C66A]
≤ 0.5

Give yeast fitness for GUGCCGUUGGCGUCAUGGUAACGGGUCUCCCUCCUGAGGAGAAGACUGCGGGUUCGAGUCCCGUACGGAACG [U3G A14C C24G A36G]
≤ 0.5

Give yeast fitness for GUUCUGUUGGCGUAAUGGUAACGCGUCUCCCUCCUAACGAGAAGACUGCGGGUUCGAGUUCCGUACGGAACG [C5U G38C C60U]
≤ 0.5

Give yeast fitness for GUUCCGUUGGCCUAAUGCUAACGCGUCUCCCUCCAAAGAAGAAGACUGCGGGAUCGAGUCCCGUACGGAACG [G12C G18C U35A G39A U53A]
≤ 0.5

Give yeast fitness for GUUCUGUUGGCGUAAUGGUAACGCGUCGCCCUCCUAAGGAGAAGACUGCGGGUUCGAGUCCUGUGCGGAACG [C5U U28G C62U A65G]
≤ 0.5

Give yeast fitness for GUUCGGUUGGCGUAAUGGUGACGCGUCUCCCUCCUAAGGGGAAAAGUGCGGGUUCGAGUGUCAUACGGAACG [C5G A20G A40G G44A C46G C60G C61U G63A]
≤ 0.5

Give yeast fitness for GUUCCGUUGGCGUAAAGGGAACGCGUCUCCCUUCUAAGGCAACGACUGCGGGUUCGAGUCGCGUACGGAACG [U16A U19G C33U A40C G41A A43C C61G]
≤ 0.5
